Listed here: items and their measured pKi.
Molecular target: Muscarinic acetylcholine receptor M2 (Homo sapiens, UniProt P08172)
Sequence (P08172 whole entry): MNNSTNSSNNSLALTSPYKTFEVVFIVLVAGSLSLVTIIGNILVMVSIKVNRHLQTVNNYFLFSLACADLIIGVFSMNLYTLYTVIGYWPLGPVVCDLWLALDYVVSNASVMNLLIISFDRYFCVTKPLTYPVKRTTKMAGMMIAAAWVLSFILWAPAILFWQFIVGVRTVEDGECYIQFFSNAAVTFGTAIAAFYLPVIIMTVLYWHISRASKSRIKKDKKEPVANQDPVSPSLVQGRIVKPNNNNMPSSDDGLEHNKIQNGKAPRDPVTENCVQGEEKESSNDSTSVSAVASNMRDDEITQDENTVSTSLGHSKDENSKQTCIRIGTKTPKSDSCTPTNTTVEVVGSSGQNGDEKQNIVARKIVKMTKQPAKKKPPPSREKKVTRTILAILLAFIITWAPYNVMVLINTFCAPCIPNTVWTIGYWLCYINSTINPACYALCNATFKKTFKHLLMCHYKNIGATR
Remember the convention: pKi equals -log10 of concentration in molar.

Consider the following illustrative entries.
1) C[N+](C)(C)CC#CCOC(=O)Nc1cccc(Cl)c1 | 5.49
2) c1coc([C@H]2CCCN2)c1 | 4.11
3) Cc1ccc(C2CCCN2C)o1 (racemic) | 4.84
4) Cc1ccc(C[N+](C)(C)C)o1 | 6.02
5) Cc1ccc(C2CCCN2)o1 (racemic) | 5.37
6) Cc1ccc([C@@H]2CCC[N+]2(C)C)o1.[I-] | 5.78

Indicate its recorded pKi; the compound in question is Cc1ccc([C@H]2CCCN2)o1
5.49

Quote pKi reported for C[N+]1(C)CCCC1c1ccco1.[I-] (racemic) please.
5.43

Output measured pKi for this item: C[N+]1(C)CCC[C@H]1c1ccco1.[I-]
5.13

Give recorded pKi. Cc1ccc([C@H]2CCC[N+]2(C)C)o1.[I-]
5.57

Return reported pKi. Input compound: CN1CCC[C@@H]1c1ccco1
4.32

Name the recorded pKi of the compound listed here: Cc1ccc(C2CCC[N+]2(C)C)o1.[I-] (racemic)
5.72

Fill in pKi for record Cc1ccc([C@@H]2CCCN2)o1
4.54
